Experiment: NCI Yeast Anticancer Drug Screen. Data for the mlh1 rad18 strain (AID 175)
Conditions: S. cerevisiae mlh1 rad18 strain growth inhibition; at 50.0 µM
About 79,000 compounds went through this panel and 15% of them were active in at least one assay; those are over-represented in the sample as a whole. Calls of active or inactive are those of the source. Cut-off read from the data, not from the text of the source: active = growth inhibition above about 70%; inactive = the rest. *1 amine or outer side, *2 acyl side, *3 side chain or, on linkers, in order; H or OH if unused. Where a SMILES comes first, the peptide text is derived from it. [ ]: non-standard residue; d: D form. The star is where a group is joined. X17 = CC(=O)N(C)SCC(N[*:1])C(=O)[*:2]; Fmoc = O=C(OCC1c2ccccc2-c2ccccc21)*; For = O=C*
Your answer must be one of the following: 1 = active, -1 = inactive

compound | classAssignment
Clc1ccc(SCc2csc(-c3ccc(Cl)cc3)n2)cc1 | -1
CNc1nc(=S)nc(-c2ccccc2)s1 | -1
CC(=O)N(C)SCC(NC(=O)C(Cc1ccccc1)NC(=O)OCC1c2ccccc2-c2ccccc21)C(=O)NC(Cc1ccccc1)C(=O)NC(Cc1cn(C=O)c2ccccc12)C(=O)NC(CCCCNC(=O)OCC1c2ccccc2-c2ccccc21)C(=O)NC(C(=O)NC(CSN(C)C(C)=O)C(=O)NC(C(N)=O)C(C)O)C(C)O (centres undefined) (Fmoc-F[X17]FW(For)K(Fmoc)T[X17]T-NH2; configuration not given here) | 1

Recorded test outcome, item O=C(O)C(CNCc1ccccc1)(c1ccccc1)c1ccccc1
-1

// next record CSc1nnc(CF)c(=O)[nH]1
-1

// next record CC1(C)C2CCC1C(=O)C(C=O)C2 (centres undefined)
-1

// next record CC(=O)CC(=O)Nc1ccc(C(=O)O)c(O)c1
-1

// next record CC(O)CN(CC(C)O)S(=O)(=O)c1ccc(N)cc1 (centres undefined)
-1

// next record Cc1cnc2[nH]c(-c3cccc4ccccc34)cc(=O)c2c1
-1

====

Assay: NCI Yeast Anticancer Drug Screen. Data for the rad50 strain (AID 155);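 note: 0% = growth of vehicle-only cultures of the same strain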
Details: S. cerevisiae rad50 strain growth inhibition; at 50.0 µM; stronger effect = higher value
Description: Growth inhibition of yeast strains with defined genetic alterations is measured as a screen for potential anti-cancer activity. Selected strains with alterations in DNA damage repair or cell cycle control were exposed to compounds and growth inhibition was measured relative to vehicle treated controls. The strain used in this assay is rad50
About 79,000 compounds went through this panel and 15% of them were active in at least one assay; those are over-represented in the sample as a whole. Active and inactive are the calls of the source. Cut-off read from the data, not from the text of the source: active = growth inhibition above about 70%; inactive = the rest.
assayMetric: growth inhibition

// worked examples, growth inhibition included
molecule | growth inhibition
CCC/C(=N/O)C(=O)OCC | -3.4% (inactive)
Nc1cc(C(=O)O)ccc1Cl | -9.7% (inactive)
COc1cc(C=O)ccc1OC(=O)Nc1cccc(Cl)c1C | -0.55% (inactive)
O=C(Nc1ccc(F)cc1)C(=O)C(C(=O)c1ccccc1F)C1OC(=O)c2ccccc21 (centres undefined) | 2.8% (inactive)

Please look up its growth inhibition: CCOC1OC(C2COC(=O)O2)C(O)C1O (centres undefined)
15.8% (inactive)

// next record CCCCCC[N+]12CC=C3COC(=O)C(C)(O)C(C)(O)C(C)C(=O)OC(CC1)C32 (centres undefined)
0.7% (inactive)

// next record O=C1CCCCC1N1CCCCC1 (centres undefined)
-4.95% (inactive)

// next record O=C(CCCc1ccccn1)c1ccccc1
1.8% (inactive)

// next record Cc1ccc([Si](C)(C)c2ccccc2)cc1
-2.4% (inactive)

// next record O=C(Nc1ccc([N+](=O)[O-])cc1)c1ccc(Cl)cc1
-4.7% (inactive)
